Reported TGI values for the following compounds.
System: KM20L2 colon
ASSAY METHOD TEXT: NCI tumour cell line growth inhibition, 48 h
ENDPOINT LABEL: TGI

[[record]]
compound = "C/C(CC(=O)Nc1cccc(Cl)c1C)=N\\NC(=O)c1ccncc1"
result = "> 100 µM"

[[record]]
compound = "O=C(/C=C/c1ccccc1Cl)NC1C=Nc2ccc([N+](=O)[O-])cc2NC1 (centres undefined)"
result = "> 100 µM"

[[record]]
compound = "Cc1cccc(C)c1NC(=O)C(=O)C(C(=O)c1ccccc1-c1ccccc1)C1OC(=O)c2ccccc21 (centres undefined)"
result = "67.7 µM"

[[record]]
compound = "COc1cc(N=Nc2cccc(S(=O)(=O)O)c2)ccc1N=Nc1ccc(/C=C/c2ccc(-n3on3-c3ccc(/C=C/c4ccc(N=Nc5ccc(N=Nc6cccc(S(=O)(=O)O)c6)cc5OC)cc4S(=O)(=O)O)c(S(=O)(=O)O)c3)cc2S(=O)(=O)O)c(S(=O)(=O)O)c1"
result = "> 100 µM"

